# test method notes: Intrinsic clearance in human liver microsomes at 1 uM after 1 hr in absence of NADPH
# Format: ADME, Microsome
# experimental conditions: read-out: CLH
Examples of compounds with documented CLint scaled at 1 µM follow.
A complete answer gives the number and then names the unit.

- smiles structure: "O=C1CC(=O)CC([C@@H]2C[C@H]2c2cc(C(F)(F)F)cc(C(F)(F)F)c2)C1"
  readout kind: "CLint scaled at 1 µM"
  measured value: "12 mL/min/kg"

Then this compound:
QUERY: Bench note: what CLint scaled at 1 µM did "C[C@H](Oc1cc(C(F)(F)F)cc(C(F)(F)F)c1)C1CC(=O)CC(=O)C1" show?
RESULT: 10 mL/min/kg

* * *

# test method notes: Apparent permeability of the compound from apical to basal side of human Caco2 cells at 50 uM after 2 hrs
# Type: ADME, cell-based
# experimental conditions: Caco-2
Examples of molecules with documented Papp A→B at 2 h, 50 µM follow.
Respond numerically; units are ×10⁻⁶ cm/s and should not be typed.

QUERY: Bench note: what Papp A→B at 2 h, 50 µM did "C[C@H](Oc1cc(C(F)(F)F)cc(C(F)(F)F)c1)C1CC(=O)CC(=O)C1" show?
RESULT: 24.1

QUERY: Another molecule to look at: "O=C1CC(=O)CC([C@@H]2C[C@H]2c2cc(C(F)(F)F)cc(C(F)(F)F)c2)C1"
RESULT: 21.7

* * *

# System: Liver microsomes
# test method notes: Half life in human liver microsomes at 1 uM after 1 hr in presence of NADPH
# Assay type: ADME, Microsome
readout kind: t1/2 (min)
Respond numerically; units are min and should not be typed.

QUERY: Bench note: what t1/2 did "O=C1CC(=O)CC([C@@H]2C[C@H]2c2cc(C(F)(F)F)cc(C(F)(F)F)c2)C1" show?
RESULT: 49

* * *

# test method notes: Drug uptake in brain at 500 mg/kg, ip
# Format: ADME, organism-based
# Design: dose 500 mg/kg, route intraperitoneal
# experimental conditions: in vivo, read-out: Drug uptake
readout kind: concentration (µM)
Respond numerically; units are µM and should not be typed.

QUERY: Bench note: what concentration did "C[C@H](Oc1cc(C(F)(F)F)cc(C(F)(F)F)c1)C1CC(=O)CC(=O)C1" show?
RESULT: 8.3

* * *

# test method notes: Tmax in brain at 500 mg/kg, ip
# Type: ADME, organism-based
# Parameters: dose 500 mg/kg, route intraperitoneal
readout kind: Tmax (h)
Respond numerically; units are h and should not be typed.

QUERY: Bench note: what Tmax did "C[C@H](Oc1cc(C(F)(F)F)cc(C(F)(F)F)c1)C1CC(=O)CC(=O)C1" show?
RESULT: 12

# credit: ChEMBL document CHEMBL2086384
